Test system: NCI-H650
test.description: relative viability (nuclei count vs DMSO), 5 days (fraction); higher = more cells survive
condition.parameters: first compound 0.1265 µM
result.type: relative viability
Output: the number by itself.

# example entries with known answers
O=C(O)c1ccc(-c2c[nH]c3ncc(-c4ccccc4)cc23)cc1C1CCCC1 + Nc1ncn([C@H]2C[C@H](O)[C@@H](CO)O2)c(=O)n1 [Decitabine] (partner 2 µM) ... 0.317
O=C(O)c1ccc(-c2c[nH]c3ncc(-c4ccccc4)cc23)cc1C1CCCC1 + COc1cc2c(Oc3ccc(NC(=O)C4(C(=O)Nc5ccc(F)cc5)CC4)cc3F)ccnc2cc1OCCCN1CCOCC1 [Foretinib] (partner 0.25 µM) ... 1.11
O=C(O)c1ccc(-c2c[nH]c3ncc(-c4ccccc4)cc23)cc1C1CCCC1 + Cc1nc(NC(=O)N2CCC[C@H]2C(N)=O)sc1-c1ccnc(C(C)(C)C(F)(F)F)c1 [Alpelisib] (partner 2 µM) ... 1.13

Prompt line: Consider the compound shown here: O=C(O)c1ccc(-c2c[nH]c3ncc(-c4ccccc4)cc23)cc1C1CCCC1 + CS(=O)(=O)N1CCN(Cc2cc3nc(-c4cccc5[nH]ncc45)nc(N4CCOCC4)c3s2)CC1 [Pictilisib] (partner 1 µM) What is its recorded relative viability?
Response line: 0.889

Prompt line: Which relative viability value is on record for O=C(O)c1ccc(-c2c[nH]c3ncc(-c4ccccc4)cc23)cc1C1CCCC1 + NC(=O)Nc1cc(-c2cccc(F)c2)sc1C(=O)N[C@H]1CCCNC1 [AZD7762] (partner 0.2 µM) ?
Response line: 1.11

Prompt line: What measured relative viability goes with O=C(O)c1ccc(-c2c[nH]c3ncc(-c4ccccc4)cc23)cc1C1CCCC1 + CC(=O)Nc1cccc(-n2c(=O)n(C3CC3)c(=O)c3c(Nc4ccc(I)cc4F)n(C)c(=O)c(C)c32)c1 [Trametinib] (partner 0.02 µM) ?
Response line: 0.943

Prompt line: State the recorded relative viability for this entry: O=C(O)c1ccc(-c2c[nH]c3ncc(-c4ccccc4)cc23)cc1C1CCCC1 + O=C(CCCCCCC(=O)Nc1ccccc1)NO [Vorinostat] (partner 1 µM)
Response line: 0.394

* * *

The following molecules are listed with their measured relative viability values.
Tested on: PC-14
test.description: relative viability (nuclei count vs DMSO), 5 days (fraction); higher = more cells survive
condition.parameters: first compound 0.1265 µM
Number, no unit, nothing else.

Worked cases, relative viability given:
O=C(O)c1ccc(-c2c[nH]c3ncc(-c4ccccc4)cc23)cc1C1CCCC1 + CC(=O)Nc1cccc(-n2c(=O)n(C3CC3)c(=O)c3c(Nc4ccc(I)cc4F)n(C)c(=O)c(C)c32)c1 [Trametinib] (partner 0.02 µM) ... 0.75
O=C(O)c1ccc(-c2c[nH]c3ncc(-c4ccccc4)cc23)cc1C1CCCC1 + CC(C)C[C@H](NC(=O)[C@H](Cc1ccccc1)NC(=O)c1cnccn1)B(O)O [Bortezomib] (partner 0.002 µM) ... 0.901
O=C(O)c1ccc(-c2c[nH]c3ncc(-c4ccccc4)cc23)cc1C1CCCC1 + Nc1ncn([C@H]2C[C@H](O)[C@@H](CO)O2)c(=O)n1 [Decitabine] (partner 2 µM) ... 0.211
O=C(O)c1ccc(-c2c[nH]c3ncc(-c4ccccc4)cc23)cc1C1CCCC1 + Cc1nc(NC(=O)N2CCC[C@H]2C(N)=O)sc1-c1ccnc(C(C)(C)C(F)(F)F)c1 [Alpelisib] (partner 2 µM) ... 0.897
O=C(O)c1ccc(-c2c[nH]c3ncc(-c4ccccc4)cc23)cc1C1CCCC1 + O=C(c1cc(Cc2n[nH]c(=O)c3ccccc23)ccc1F)N1CCN(C(=O)C2CC2)CC1 [Olaparib] (partner 8 µM) ... 0.263

Prompt line: Would you kindly share the measured relative viability for O=C(O)c1ccc(-c2c[nH]c3ncc(-c4ccccc4)cc23)cc1C1CCCC1 + CS(=O)(=O)N1CCN(Cc2cc3nc(-c4cccc5[nH]ncc45)nc(N4CCOCC4)c3s2)CC1 [Pictilisib] (partner 1 µM) ?
Response line: 0.947
